Values compiled from patent EP3854411A1.

# measurement_target: T1, CXCR1 (UniProt P25024 1-350, limits assumed)
# T1 construct: The receptor preparation used in the ELISA is not described; also called IL-8R
# T1 sequence (looked up): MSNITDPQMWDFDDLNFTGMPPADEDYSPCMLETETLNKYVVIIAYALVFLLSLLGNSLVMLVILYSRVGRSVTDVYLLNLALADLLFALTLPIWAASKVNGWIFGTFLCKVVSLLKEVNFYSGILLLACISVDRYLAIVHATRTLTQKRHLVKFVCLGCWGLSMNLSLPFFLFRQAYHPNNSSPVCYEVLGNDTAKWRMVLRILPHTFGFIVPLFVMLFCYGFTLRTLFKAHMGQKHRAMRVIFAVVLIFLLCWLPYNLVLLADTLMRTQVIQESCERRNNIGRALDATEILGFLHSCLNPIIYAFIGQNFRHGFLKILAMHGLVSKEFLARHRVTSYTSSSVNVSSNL
# assay_notes: indirect ELISA, ONCO P8-CXCR1 complex formation
property_measured: pKd
Note: pKd values are expressed as the negative base-10 logarithm of concentration in M.

-- ask What measured pKd goes with ONCO P-8 (also called chemokine receptor antagonistic modified peptide) GSKELRCQCIRSYSKPFHPKFIKELRVIPASQFCANTEIIVKLSDGRELCLDPKENWVQRVVEKFLKRAENS ?
-- reply 6.54
